Taken from patent EP2951180B1.

target: HDM2 (Homo sapiens, UniProt Q00987); construct: Thioredoxin (N); made in house; host or cells: E. coli strain BL21(DE3)Rosetta; test: FRET assay (HDM2 inhibition; method not described in this part); type: binding; conditions: Table 2
Sequence (Q00987 17-125): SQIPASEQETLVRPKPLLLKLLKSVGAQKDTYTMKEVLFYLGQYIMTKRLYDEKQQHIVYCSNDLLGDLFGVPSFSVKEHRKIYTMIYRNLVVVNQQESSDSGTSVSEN

querySmiles | unitAbbrev | IC50
C[C@@H](Nc1nc(C(=O)O)nc2nc(-c3ccc(Cl)cc3Cl)n(Cc3ccc(C(F)(F)F)cc3)c12)C1CC1 | nM | 213
C[C@@H](Nc1nc(C(=O)O)nc2nc(-c3cccc(Cl)c3)n(Cc3ccc(Cl)cc3)c12)C1CC1 | nM | 218
Cc1noc(C)c1-c1nc2nc(C(=O)O)nc(N[C@H](C)C3CCC3)c2n1Cc1ccc(C(F)(F)F)cc1 | nM | 79.4
Cc1ccc(C)c(-c2nc3nc(C(=O)O)nc(N[C@H](C)C4CC4)c3n2Cc2ccc(Cl)cc2)c1 | nM | 199
C[C@@H](Nc1nc(C(=O)O)nc2nc(-c3cccc(OC(F)F)c3)n(Cc3ccc(C(F)(F)F)cc3)c12)C1CCC1 | nM | 41.7
C[C@@H](Nc1nc(C(=O)O)nc2nc(-c3ccccc3F)n(Cc3ccc(C(F)(F)F)cc3)c12)C1CCC1 | nM | 26

###

target: HDM2 (Homo sapiens, UniProt Q00987); construct: Thioredoxin (N); made in house; host or cells: E. coli strain BL21(DE3)Rosetta; experiment: HDM2 FRET assay (inhibition of binding of FITC labeled p53-pocket peptide to HDM2); conditions: Table 9; read-out: FRET IC50
measureName: IC50 (nM)

molecule | measureName | valueObserved
C[C@@H](Nc1nc(-c2noc(=O)[nH]2)nc2nc(N(C)CC(C)(C)C)n(Cc3ccc(C(F)(F)F)cc3)c12)C1CCC1 | IC50 | 13.3
C[C@@H](Nc1nc(C(=O)O)nc2nc(N3CCCc4ccccc43)n(Cc3ccc(C(F)(F)F)cc3)c12)C1CCC1 | IC50 | 10.4
C[C@@H](Nc1nc(C(=O)O)nc2nc(N3CCCCC3c3ccncc3)n(Cc3ccc(C(F)(F)F)cc3)c12)C1CCC1 (stereo partly drawn) | IC50 | 16.6

###

target: HDM2 (Homo sapiens, UniProt Q00987); construct: Thioredoxin (N); made in house; host or cells: E. coli strain BL21(DE3)Rosetta; test: FRET assay (HDM2 inhibition; method not described in this part); type: binding; conditions: Table 1
Measured IC50 accompanies every entry in the list below.
measureName: IC50

molecule | valueObserved
C[C@@H](Nc1nc(C(=O)O)nc2nc(-c3cccc(-n4cccc4)c3)n(Cc3ccc(C(F)(F)F)cc3)c12)C1CCC1 [Example 1.107] | 34.8 nM
Cc1ccc(N(C)C)cc1-c1nc2nc(C(=O)O)nc(N[C@H](C)C3CCC3)c2n1Cc1ccc(C(F)(F)F)cc1 [Example 1.39] | 58.5 nM
C[C@@H](Nc1nc(C(=O)O)nc2nc(-c3ccc(N(C)C)cc3)n(Cc3ccc(C(F)(F)F)cc3)c12)C1CCC1 [Example 1.113] | 716 nM
Cc1cccc(-c2nc3nc(C(=O)O)nc(N[C@H](C)C4CCC4)c3n2Cc2ccc(C(F)(F)F)cc2)n1 [Example 1.19] | 42.5 nM
C[C@@H](Nc1nc(C(=O)O)nc2nc(-c3cc(C(C)(C)C)cc(C(C)(C)C)c3)n(Cc3ccc(C(F)(F)F)cc3)c12)C1CCC1 [Example 1.128] | 224 nM
COc1cc(-c2nc3nc(C(=O)O)nc(N[C@H](C)C4CCC4)c3n2Cc2ccc(C(F)(F)F)cc2)ccc1Cl [Example 1.124] | 26.4 nM
C[C@@H](Nc1nc(C(=O)O)nc2nc(-c3cc(Cl)ccn3)n(Cc3ccc(C(F)(F)F)cc3)c12)C1CCC1 [Example 1.44] | 16.5 nM
CC(C)c1ccnc(-c2nc3nc(C(=O)O)nc(N(C)[C@H](C)C4CCC4)c3n2Cc2ccc(C(F)(F)F)c(F)c2)c1 [Example 1.13] | 158 nM
COc1ccc(C(F)(F)F)cc1-c1nc2nc(C(=O)O)nc(N[C@H](C)C3CCC3)c2n1Cc1ccc(C(F)(F)F)cc1 [Example 1.35] | 27.8 nM
COc1ccc(-c2nc3nc(C(=O)O)nc(N[C@H](C)C4CCC4)c3n2Cc2ccc(C(F)(F)F)cc2)c(F)c1 [Example 1.136] | 125 nM
Cc1c(C(C)C)ccnc1-c1nc2nc(C(=O)O)nc(N[C@H](C)C3CCC3)c2n1Cc1ccc(C(F)(F)F)cc1 [Example 1.87] | 59 nM
Cc1cc(-c2nc3nc(C(=O)O)nc(N[C@H](C)C4CCC4)c3n2Cc2ccc(C(F)(F)F)cc2)n(C)n1 [Example 1.94] | 173 nM
C[C@@H](Nc1nc(C(=O)O)nc2nc(-c3cccc(-c4ccccc4)n3)n(Cc3ccc(C(F)(F)F)cc3)c12)C1CCC1 [Example 1.63] | 324 nM
CCOc1ccc(C)cc1-c1nc2nc(C(=O)O)nc(N[C@H](C)C3CCC3)c2n1Cc1ccc(C(F)(F)F)cc1 [Example 1.138] | 15.8 nM
CC(C)c1ccnc(-c2nc3nc(C(=O)O)nc(N[C@H](C)C4CCC4)c3n2Cc2ccc(C(F)(F)F)cc2)c1 [Example 1.22] | 4.22 nM
Cc1cccc(-c2nc3nc(C(=O)O)nc(N[C@H](C)C4CCC4)c3n2Cc2ccc(C(F)(F)F)cc2)c1C [Example 1.126] | 18 nM
CCCc1ccnc(-c2nc3nc(C(=O)O)nc(N[C@H](C)C4CCC4)c3n2Cc2ccc(C(F)(F)F)c(F)c2)c1 [Example 1.80] | 7.45 nM
Cc1ccc(-c2nc3nc(C(=O)O)nc(N[C@H](C)C4CCC4)c3n2Cc2ccc(C(F)(F)F)cc2)cc1F [Example 1.102] | 20.3 nM
C[C@@H](Nc1nc(C(=O)O)nc2nc(-c3nccc4ccccc34)n(Cc3ccc(C(F)(F)F)cc3)c12)C1CCC1 [Example 1.73] | 27.3 nM
CCc1ccc(OC)c(-c2nc3nc(C(=O)O)nc(N[C@H](C)C4CCC4)c3n2Cc2ccc(C(F)(F)F)cc2)c1 [Example 1.31] | 18.7 nM
CCCc1ccnc(-c2nc3nc(C(=O)O)nc(N[C@H](C)C4CCC4)c3n2Cc2ccc(C(F)(F)F)cc2)c1 [Example 1.68] | 5.62 nM

###

Measured pIC50 accompanies every entry in the list below.
biological target: HDM2 (Homo sapiens, UniProt Q00987); construct: Thioredoxin (N); made in house; host or cells: E. coli strain BL21(DE3)Rosetta; assay: FRET assay (HDM2 inhibition; method not described in this part); format: binding; conditions: Table 1
pIC50: −log10 of the molar value.

molecule | pIC50
C[C@@H](Nc1nc(C(=O)O)nc2nc(-c3cc(N(C)C)ccc3OC(F)(F)F)n(Cc3ccc(C(F)(F)F)cc3)c12)C1CCC1 [Example 1.1] | 7.94
C[C@@H](Nc1nc(C(=O)O)nc2nc(-c3ccc(OC(F)F)cn3)n(Cc3ccc(C(F)(F)F)cc3)c12)C1CCC1 [Example 1.66] | 7.23
CCOc1ccc(C(C)C)cc1-c1nc2nc(C(=O)O)nc(N[C@H](C)C3CCC3)c2n1Cc1ccc(C(F)(F)F)cc1 [Example 1.12] | 7.53
CC(C)c1cncc(-c2nc3nc(C(=O)O)nc(N[C@H](C)C4CCC4)c3n2Cc2ccc(C(F)(F)F)cc2)c1 [Example 1.81] | 7.13

###

target: HDM2 (Homo sapiens); construct: Thioredoxin (N); made in house; host or cells: E. coli strain BL21(DE3)Rosetta; experiment: FRET assay (HDM2 inhibition; method not described in this part); assay type: binding; details: Table 2
measureName: log10 of IC50 (log10 of the value in nM)

querySmiles | valueObserved
Cc1cccc(-c2nc3nc(C(=O)O)nc(N[C@H](C)C4CC4)c3n2Cc2ccc(C(F)(F)F)cc2)c1 | 1.45
C[C@@H](Nc1nc(C(=O)O)nc2nc(-c3ccccc3C(F)(F)F)n(Cc3ccc(C(F)(F)F)cc3)c12)C1CCC1 | 1.13
CCOc1cccc(-c2nc3nc(C(=O)O)nc(N[C@H](C)C4CC4)c3n2Cc2ccc(C(F)(F)F)cc2)c1 | 2.48
Cc1cccc(-c2nc3nc(C(=O)O)nc(N[C@H](C)C4CCC4)c3n2Cc2ccc(C(F)(F)F)cc2)c1 | 1.56
Cc1ccc(-c2nc3nc(C(=O)O)nc(N[C@H](C)C4CC4)c3n2Cc2ccc(C(F)(F)F)cc2)cn1 | 3.11
Cc1cc(-c2nc3nc(C(=O)O)nc(N[C@H](C)C4CC4)c3n2Cc2ccc(Cl)cc2)ccc1F | 1.61
C[C@@H](Nc1nc(C(=O)O)nc2nc(-c3cccc(Cl)c3)n(Cc3ccc(C(F)(F)F)cc3)c12)C1CCC1 | 1.48
C[C@@H](Nc1nc(C(=O)O)nc2nc(-c3ccc(C(F)(F)F)cc3)n(Cc3ccc(C(F)(F)F)cc3)c12)C1CC1 | 3.15
COc1cc(C#N)cc(-c2nc3nc(C(=O)O)nc(N[C@H](C)C4CCC4)c3n2Cc2ccc(C(F)(F)F)cc2)c1 | 1.95
CCc1ccc(OC)cc1-c1nc2nc(C(=O)O)nc(N[C@H](C)C3CCC3)c2n1Cc1ccc(C(F)(F)F)cc1 | 1.05
Cc1cc(OC(F)(F)F)ccc1-c1nc2nc(C(=O)O)nc(N[C@H](C)C3CC3)c2n1Cc1ccc(C(F)(F)F)cc1 | 2.92
CC(C)c1cccc(-c2nc3nc(C(=O)O)nc(N[C@H](C)C4CC4)c3n2Cc2ccc(C(F)(F)F)cc2)c1 | 2.09
